Tested on: H1975
assay_comment: CCK-8 proliferation, NCI-H1975 (H1975)
Format: cell-based, Human
conditions: CCK-8; 96 hours; read-out: Inhibitory activity (IC50) on tumor cell proliferation, H1975
measurement_label: IC50

Sure, the documented IC50 for COc1cc(N2CCC(N3CCN(CCC#Cc4cccc5c4CN(C4CCC(=O)NC4=O)C5=O)CC3)CC2)ccc1Nc1ncc(Cl)c(Nc2ccccc2P(C)(C)=O)n1 (stereo not shown) [HJM-561, reference compound] is 50 to 100 nM

====

Test system: H1975-1µM Osimertinib cells
assay_comment: CCK-8 proliferation, osimertinib-resistant H1975 cells
Type: cell-based, Human
conditions: Homo sapiens, NCI-H1975; CCK-8; osimertinib-resistant H1975 cells obtained by treating H1975 cells with 1 µM Osimertinib for 3 months; read-out: Inhibitory activity (IC50) on tumor cell proliferation, H1975-1µm Osimertinib
pIC50: −log10 of the molar value.
measurement_label: pIC50

Example entries and their recorded answers appear below.
| compound | measurement_label | result_value |
| --- | --- | --- |
| CC(C)n1nc(N2CCC(N(C)Cc3ccc(C4CCC(=O)NC4=O)cc3)CC2)c2cnc(Nc3ccnc(-c4cnn(S(=O)(=O)C5CC5)c4)n3)cc21 (stereo not drawn) | pIC50 | 6.30 to 7.00 |
| COC1CCN(c2nccc(Nc3cc4c(cn3)c(N3CCN(Cc5ccc(N6CCC(=O)NC6=O)cc5)CC3)nn4C(C)C)n2)CC1 | pIC50 | 8.00 to 9.00 |

Recorded pIC50 for O=C1CCN(c2ccc(CN3C[C@H]4C[C@@H]3CN4c3ccc(-c4cc(F)c5c(c4)C(=O)N(C(C(=O)Nc4nccs4)c4ncn6c4CCC6)C5)cc3)nc2)C(=O)N1 (stereo partly drawn) on H1975-1µM Osimertinib cells was 6.30 to 7.00

====

tested_on: human Cereblon WT GST-tagged protein (Homo sapiens, UniProt Q96SW2)
Construct: purchased CISBIO 64BDCRBNPEH
Sequence (Q96SW2 whole entry): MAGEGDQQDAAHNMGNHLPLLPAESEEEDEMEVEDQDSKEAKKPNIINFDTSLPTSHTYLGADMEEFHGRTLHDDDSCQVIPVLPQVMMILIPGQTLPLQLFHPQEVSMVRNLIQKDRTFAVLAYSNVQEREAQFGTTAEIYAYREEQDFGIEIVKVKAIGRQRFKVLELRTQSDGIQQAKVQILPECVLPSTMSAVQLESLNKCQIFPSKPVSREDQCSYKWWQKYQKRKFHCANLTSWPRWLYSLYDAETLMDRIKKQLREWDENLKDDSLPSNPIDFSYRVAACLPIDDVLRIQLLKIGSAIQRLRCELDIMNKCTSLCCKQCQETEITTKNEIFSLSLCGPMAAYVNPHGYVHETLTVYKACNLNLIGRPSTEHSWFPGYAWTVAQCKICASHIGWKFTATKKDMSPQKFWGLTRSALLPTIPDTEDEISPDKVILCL
assay_comment: CRBN binding, HTRF (CEREBLON BINDING kit)
conditions: Table II-2, CRBN binding screening, HTRF; at 0.5µM
Description: The CEREBLON BINDING kits (specification: 10,000 tests; product number: Catalog # 64BDCRBNPEH; CISBIO company) was used to determine the CRBN binding ability of the compounds to be tested through a HTRF method (homogeneous time-resolved fluorescence). […] After sealing and incubating the solutions in the aforementioned wells at room temperature for 3 hours, the […] at emission wavelengths of 620 nm and 665 nm were detected by the HTRF method using a Spark microplate reader (V3.1 SP1).
measurement_label: Inhibition rate (%) at 0.5µM

| molecule | result_value |
| --- | --- |
| CNC(=O)c1ccccc1Nc1cc(Nc2cc(C)c(C3CCN(Cc4cccc(N5CCC(=O)NC5=O)c4)CC3)cc2OC(C)C)ncc1C(F)(F)F | a2 (20% < a2 ≤ 30%) |
| CC(C)(O)c1cc2nc(C3CCN(Cc4ccc(C5CCC(=O)NC5=O)cn4)CC3)sc2cc1NC(=O)c1cccc(C(F)(F)F)n1 (stereo not shown) | a2 (20% < a2 ≤ 30%) |
| O=C1CCC(c2ccc(CN3CCC(n4cc(NC(=O)c5coc(-c6ccnc(NCC(F)(F)F)c6)n5)c(C(F)F)n4)CC3)cc2)C(=O)N1 (stereo not shown) | a2 (20% < a2 ≤ 30%) |
